B1: Azoarcus group I ribozyme (parent)
chain: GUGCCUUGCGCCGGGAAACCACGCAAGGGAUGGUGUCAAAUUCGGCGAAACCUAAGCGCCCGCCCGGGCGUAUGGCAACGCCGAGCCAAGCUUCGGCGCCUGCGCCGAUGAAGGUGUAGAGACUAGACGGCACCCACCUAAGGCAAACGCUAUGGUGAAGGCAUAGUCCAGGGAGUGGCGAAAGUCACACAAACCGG

- Variants of: B1
- method summary: reverse-splicing fitness (ratio to wild type); higher = more active; in vitro selection; Mg2+ level not given
measurement kind: reverse-splicing fitness
Give a plain numeric answer without units written out.

Look up reverse-splicing fitness of C82G C150A C169A and report it.
0.00956

Look up reverse-splicing fitness of C82A A120C A145U C150G C169G and report it.
0.00692

Look up reverse-splicing fitness of C82U A145U U176A and report it.
0.412

Look up reverse-splicing fitness of C82A A111G A120C A145U C169U U176C and report it.
0.0131

Look up reverse-splicing fitness of C82A A111C A120G and report it.
0.0149

Look up reverse-splicing fitness of A111C A120U A145U C150G C169U U176A and report it.
0.00284

Look up reverse-splicing fitness of C82A A120G A145C C169U U176C and report it.
0.0129

Look up reverse-splicing fitness of C82U A111G A120G A145C C150A C169G and report it.
0.00737

Look up reverse-splicing fitness of C82A A111G A120C A145C C150G C169U U176C and report it.
0.00986

Look up reverse-splicing fitness of A111G A120U A145G C150U U176C and report it.
0.285

Look up reverse-splicing fitness of C82A A111U A145G C150A C169A U176C and report it.
0.0242
